Test system: Nucleic Acid
Test: Binding constant for the sequence d(CGGAATTCGCG)2
Parameters: unit not given here
READOUT KIND: K
Answer field: number only, no words.

Guide cases for K, answers given:
{"STRUCTURE SMILES": "N=C(N)c1ccc2[nH]c(CCc3nc4cc(C(=N)N)ccc4[nH]3)nc2c1", "SYSTEM TESTED": "Nucleic Acid", "K": "7.6e+07"}
{"STRUCTURE SMILES": "c1cc2[nH]c(-c3ccc4[nH]c(CCCCc5nc6cc(-c7nc8cc(C9=NCCN9)ccc8[nH]7)ccc6[nH]5)nc4c3)nc2cc1C1=NCCN1", "SYSTEM TESTED": "Nucleic Acid", "K": "3.1e+08"}

Record N=C(N)c1ccc2[nH]c(/C=C/c3nc4cc(C(=N)N)ccc4[nH]3)nc2c1 : what is its K with Nucleic Acid? 5.3e+08

Record c1cc2[nH]c(CCc3nc4cc(C5=NCCN5)ccc4[nH]3)nc2cc1C1=NCCN1 : what is its K with Nucleic Acid? 8.8e+07

Record N=C(N)c1ccc2[nH]c(CCCCc3nc4cc(C(=N)N)ccc4[nH]3)nc2c1 : what is its K with Nucleic Acid? 1.3e+07

Record N=C(N)c1ccc2[nH]c(-c3ccc4[nH]c(CCCCc5nc6cc(-c7nc8cc(C(=N)N)ccc8[nH]7)ccc6[nH]5)nc4c3)nc2c1 : what is its K with Nucleic Acid? 4.5e+08

Record c1cc2[nH]c(Cc3nc4cc(C5=NCCN5)ccc4[nH]3)nc2cc1C1=NCCN1 : what is its K with Nucleic Acid? 930000

Record c1cc2[nH]c(-c3ccc4[nH]c(CCc5nc6cc(-c7nc8cc(C9=NCCN9)ccc8[nH]7)ccc6[nH]5)nc4c3)nc2cc1C1=NCCN1 : what is its K with Nucleic Acid? 2e+09

* * *

Test system: Nucleic Acid
Assay: Thermal melting temperature for (dCGCGAATTCGCG)2 at a concentration of 3*10e-6 M base pairs at a ratio of one compound per oligomer duplex
Below, each entry is listed with its recorded ΔTm.
Answer field: number only, no words.

Guide cases for ΔTm, answers given:
{"STRUCTURE SMILES": "N=C(N)c1ccc2[nH]c(/C=C/c3nc4cc(C(=N)N)ccc4[nH]3)nc2c1", "SYSTEM TESTED": "Nucleic Acid", "ΔTm": 22.8}
{"STRUCTURE SMILES": "N=C(N)c1ccc2[nH]c(-c3ccc4[nH]c(CCCCc5nc6cc(-c7nc8cc(C(=N)N)ccc8[nH]7)ccc6[nH]5)nc4c3)nc2c1", "SYSTEM TESTED": "Nucleic Acid", "ΔTm": 22.2}

Next, consider the following compound.
Entry c1cc2[nH]c(-c3ccc4[nH]c(CCCCc5nc6cc(-c7nc8cc(C9=NCCN9)ccc8[nH]7)ccc6[nH]5)nc4c3)nc2cc1C1=NCCN1 has what ΔTm? 20.8
